Test Target: thromboxane synthase (Homo sapiens, UniProt P24557)
Construct: human thrombocytes were isolated from platelet-rich plasma; endogenous in cells; host or cells: human thrombocytes (platelets), intact
Sequence (P24557 whole entry): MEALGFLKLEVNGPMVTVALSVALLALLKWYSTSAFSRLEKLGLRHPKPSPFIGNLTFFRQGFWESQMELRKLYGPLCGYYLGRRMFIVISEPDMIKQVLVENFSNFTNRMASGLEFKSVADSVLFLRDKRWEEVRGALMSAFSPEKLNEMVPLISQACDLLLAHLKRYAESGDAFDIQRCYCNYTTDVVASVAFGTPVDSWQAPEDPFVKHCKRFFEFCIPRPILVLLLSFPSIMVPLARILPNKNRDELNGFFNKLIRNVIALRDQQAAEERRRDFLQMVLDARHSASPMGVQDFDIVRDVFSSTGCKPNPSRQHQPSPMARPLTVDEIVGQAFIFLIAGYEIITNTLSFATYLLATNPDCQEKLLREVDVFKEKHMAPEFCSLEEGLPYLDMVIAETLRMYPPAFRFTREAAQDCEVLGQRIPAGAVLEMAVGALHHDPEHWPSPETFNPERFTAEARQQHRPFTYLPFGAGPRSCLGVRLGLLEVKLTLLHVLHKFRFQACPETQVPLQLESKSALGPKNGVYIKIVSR
Assay Method Text: Inhibition of thromboxane synthase (human thrombocytes)
Assay type: cell-based
Assay Context: human thrombocytes; arachidonic acid 3.5 μM; read-out: IC50-Value, inhibition of thromboxane synthase (TXB2 formation)
Each entry below lists one item and its recorded IC50 value.
Your answer is read as nM, so omit the unit and give the number.

Example molecules with recorded IC50:
// `NC(=O)N(O)Cc1cccc(Oc2ccc(-n3ccnc3)cc2)c1` : IC50 value = 2500

// `CC(=O)N(O)Cc1ccc(Oc2ccc(-n3ccnc3)cc2)cc1` : IC50 value = 2900

// NC(=O)N(O)Cc1ccc(OCCn2ccnc2)cc1 [Comparison, reference compound] : IC50 value = 4000

New cases:
// `NC(=O)N(O)Cc1ccc(Oc2ccc(-n3ccnc3)cc2)cc1` : IC50 value = 2800

----------
Test Target: 5-lipoxygenase (Rattus norvegicus)
Construct: endogenous in cells; host or cells: RBL-1 cells (rat basophilic leukemia), intact
Sequence (P12527 whole entry): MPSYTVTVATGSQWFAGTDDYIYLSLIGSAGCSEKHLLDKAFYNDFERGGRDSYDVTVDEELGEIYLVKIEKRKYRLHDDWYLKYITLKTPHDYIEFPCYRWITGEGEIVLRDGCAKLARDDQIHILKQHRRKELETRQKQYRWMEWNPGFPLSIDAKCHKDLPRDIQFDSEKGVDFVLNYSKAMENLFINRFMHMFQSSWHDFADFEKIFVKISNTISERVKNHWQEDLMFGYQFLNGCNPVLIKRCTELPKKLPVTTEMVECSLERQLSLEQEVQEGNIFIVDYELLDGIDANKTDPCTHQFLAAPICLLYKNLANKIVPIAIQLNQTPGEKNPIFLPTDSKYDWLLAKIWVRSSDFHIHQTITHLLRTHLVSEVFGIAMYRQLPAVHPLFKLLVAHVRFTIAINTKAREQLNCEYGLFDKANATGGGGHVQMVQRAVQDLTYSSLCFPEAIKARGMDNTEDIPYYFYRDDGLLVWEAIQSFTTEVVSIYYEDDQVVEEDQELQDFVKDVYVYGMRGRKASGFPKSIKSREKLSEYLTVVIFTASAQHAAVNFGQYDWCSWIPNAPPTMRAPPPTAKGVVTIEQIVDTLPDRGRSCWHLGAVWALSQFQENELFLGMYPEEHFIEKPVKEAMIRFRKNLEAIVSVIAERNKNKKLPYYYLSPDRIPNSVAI
Assay Method Text: Inhibition of 5-lipoxygenase in RBL-1-cells
Type: cell-based
Assay Context: 20 μM [14C]-arachidonic acid, 20 μM A 23 187
Readout Kind: pIC50
Reminder that pIC50 means the negative base-10 logarithm of the concentration expressed in mol/L.

// NC(=O)N(O)Cc1ccc(Oc2ccc(-n3ccnc3)cc2)cc1 [Example 1] : pIC50 value = 5.70

// NC(=O)N(O)Cc1ccc(Oc2ccc(-n3ccnc3)cc2)s1 [Example 4] : pIC50 value = 5.52

// NC(=O)N(O)Cc1ccc(Oc2ccc(-n3ccnc3)cc2)cc1 [Example 2] : pIC50 value = 5.30

// NC(=O)N(O)Cc1ccc(Oc2cccc(-n3ccnc3)c2)cc1 [Example 10] : pIC50 value = 5.70

New cases:
// NC(=O)N(O)Cc1cccc(Oc2ccc(-n3ccnc3)cc2)c1 [Example 5] : pIC50 value = 5.22

// CC(=O)N(O)Cc1ccc(Oc2ccc(-n3ccnc3)cc2)cc1 [Example 3] : pIC50 value = 5.30
